Source of measurements: patent EP4635500A1

biological target: UniProtKB Q58XD2; test: Ki,app against β-lactamase (Example 1, Table 1); details: OXA-66, class D; 30 min preincubation; n.d.: too low inhibitor activity at 100 µmol/L
Sequence (Q58XD2 entry or part of it): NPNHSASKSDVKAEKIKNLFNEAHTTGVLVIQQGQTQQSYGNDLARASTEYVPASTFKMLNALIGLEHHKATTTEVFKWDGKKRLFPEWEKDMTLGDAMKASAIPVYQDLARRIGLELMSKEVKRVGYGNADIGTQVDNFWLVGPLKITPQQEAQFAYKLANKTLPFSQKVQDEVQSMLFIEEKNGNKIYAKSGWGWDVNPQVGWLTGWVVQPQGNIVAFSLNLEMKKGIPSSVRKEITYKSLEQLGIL
test-readout: Ki

According to the records, this molecule NC(=O)[C@@H]1CC[C@@H]2CN1C(=O)N2OS(=O)(=O)O displays Ki of 7.35 µM

###

test system: P. aeruginosa; experiment: MIC, broth microdilution, CDC/FDA Antibiotic Resistance Isolate Bank (Example 7, Tables 10, 15); assay type: cell-based; conditions: Pseudomonas aeruginosa, P. aeruginosa KUB No. 5814, AR Bank # 509; read-out: MIC
In this section we review reported MIC values for a set of compounds.
Kindly answer with a numeric value in ng/mL, unit omitted.

C[C@H]1[C@H](NC(=O)/C(=N\OC(C)(C)C(=O)O)c2csc(N)n2)C(=O)N1S(=O)(=O)O [Aztreonam, aztreonam]	8
CC(C)(O/N=C(\C(=O)N[C@@H]1C(=O)N2C(C(=O)[O-])=C(C[N+]3(CCNC(=O)c4ccc(O)c(O)c4Cl)CCCC3)CS[C@H]12)c1csc(N)n1)C(=O)O [Cefiderocol, cefiderocol]	0.5
C[C@H]1COc2c(N3CCN(C)CC3)c(F)cc3c(=O)c(C(=O)O)cn1c23 [Levofloxacin, levofloxacin]	32

Moving on to another compound below.
# lookup: CN(C)c1cc(NC(=O)CNC(C)(C)C)c(O)c2c1C[C@H]1C[C@H]3[C@H](N(C)C)C(O)=C(C(N)=O)C(=O)[C@@]3(O)C(O)=C1C2=O [Tigecycline, tigecycline] on P. aeruginosa, MIC = 8
